So I've got a bunch of compounds here, and I need their IC50 values.
# System: EGFR L858R/T790M/C797S (Homo sapiens, UniProt P00533, C797S/L858R/T790M)
# Sequence (P00533 25-1210 T790M/C797S/L858R): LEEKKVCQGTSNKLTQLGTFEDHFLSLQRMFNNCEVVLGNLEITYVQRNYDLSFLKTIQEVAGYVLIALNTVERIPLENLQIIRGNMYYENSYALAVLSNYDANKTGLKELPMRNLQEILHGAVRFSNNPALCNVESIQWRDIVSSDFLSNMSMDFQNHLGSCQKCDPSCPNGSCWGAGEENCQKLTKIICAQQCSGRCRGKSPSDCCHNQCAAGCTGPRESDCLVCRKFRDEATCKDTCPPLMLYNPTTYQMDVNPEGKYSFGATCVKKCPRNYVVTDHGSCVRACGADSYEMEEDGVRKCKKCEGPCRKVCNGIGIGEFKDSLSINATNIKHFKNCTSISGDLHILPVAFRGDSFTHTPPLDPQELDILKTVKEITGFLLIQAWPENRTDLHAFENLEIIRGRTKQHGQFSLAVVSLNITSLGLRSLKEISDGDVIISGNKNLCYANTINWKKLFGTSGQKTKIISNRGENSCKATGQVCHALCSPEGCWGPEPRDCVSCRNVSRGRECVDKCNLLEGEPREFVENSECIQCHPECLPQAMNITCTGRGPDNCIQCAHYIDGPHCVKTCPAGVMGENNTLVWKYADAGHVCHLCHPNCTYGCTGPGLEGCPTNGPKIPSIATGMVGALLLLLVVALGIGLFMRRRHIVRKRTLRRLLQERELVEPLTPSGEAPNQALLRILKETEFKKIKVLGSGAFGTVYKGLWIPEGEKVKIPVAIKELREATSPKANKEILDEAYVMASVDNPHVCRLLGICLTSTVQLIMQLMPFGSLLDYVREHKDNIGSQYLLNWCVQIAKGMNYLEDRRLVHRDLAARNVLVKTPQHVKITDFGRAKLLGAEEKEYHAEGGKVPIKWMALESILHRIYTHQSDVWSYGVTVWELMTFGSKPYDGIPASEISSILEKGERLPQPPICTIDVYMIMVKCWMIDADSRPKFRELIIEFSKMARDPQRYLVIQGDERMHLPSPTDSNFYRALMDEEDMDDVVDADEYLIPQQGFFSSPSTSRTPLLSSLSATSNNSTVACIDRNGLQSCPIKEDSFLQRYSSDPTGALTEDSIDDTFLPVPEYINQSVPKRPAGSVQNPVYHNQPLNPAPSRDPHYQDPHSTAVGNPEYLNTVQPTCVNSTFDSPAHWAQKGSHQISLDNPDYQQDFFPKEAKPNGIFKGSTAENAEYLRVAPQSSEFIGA
# Assay method text: Biochemical EGFR kinase inhibition assay (Lance Ultra TR-FRET), triple mutant L858R/T790M/C797S
# Particulars: IC50 L858R/T790M/C797S (nM), 100 μM ATP
Give bare numbers, in nM.

Examples from the recorded data:
Compound	System	IC50 / nM
Cn1cc(C#Cc2cnc(Nc3ccnc(-c4cnn(S(=O)(=O)C5CC5)c4)n3)cc2N2CCC(C(C)(C)CO)CC2)cn1 [Example 14]	EGFR L858R/T790M/C797S (Homo sapiens, UniProt P00533, C797S/L858R/T790M)	3
C[C@]1(O)CCCN(c2cc(Nc3ccnc(-c4cnn(S(=O)(=O)C5CC5)c4)n3)ncc2C#Cc2cnn(C(F)(F)F)c2)C1 [Example 448]	EGFR L858R/T790M/C797S (Homo sapiens, UniProt P00533, C797S/L858R/T790M)	6.1

# evaluate next
Query :: Need IC50, item Cn1cc(C#Cc2cnc(Nc3ccnc(-c4cnn(S(=O)(=O)C5CC5)c4)n3)cc2N2CCC(C(C)(C)O)CC2)cn1 [Example 11]
Result :: 1.2
